Where do these numbers come from? They come from ChEMBL document CHEMBL1123658.

test: In vivo toxic effect was determined in mouse after intraperitoneal administration with 10% aqueous acacia gum; value ranges from 0.41-0.93; type: toxicity, organism-based; details: ip
measuredProperty: LD50 (µmol/kg)

smi=CC(=O)c1ccc(NC(=O)CCN2CCN(c3ccccn3)CC2)cc1.Cl.Cl numericvalue=480

###

system: Cavia porcellus; assay: Antibronchospatic activity determined by histamine stimulated bronchospasm inhibition in guinea pigs after(i.v.) administration; format: functional, Bronchiole
measuredProperty: log10 ID75 (log10 of the value in µM/kg)

compound=CCOC(=O)CCN1CCN(c2ccccn2)CC1.Cl.Cl numericvalue=0.85
compound=Cl.Nc1cccc(NC(=O)CCN2CCN(c3ccccn3)CC2)c1 numericvalue=-0.21
compound=CN1CCC(=C2c3ccccc3CC(=O)c3sccc32)CC1 numericvalue=-2.82
compound=CC(=O)Nc1ccc(NC(=O)CCN2CCN(c3ccccn3)CC2)cc1.Cl.Cl numericvalue=-0.01
compound=Cl.Cl.N#Cc1ccc(NC(=O)CCN2CCN(c3ccccn3)CC2)cc1 numericvalue=-0.19
compound=Nc1ccc(NC(=O)CCN2CCN(c3ccccn3)CC2)cc1 numericvalue=-1.70
compound=Cc1cc([N+](=O)[O-])cc(C)c1C(=O)NCCN1CCN(c2ccccn2)CC1.Cl.Cl numericvalue=0.66
compound=CC(=O)c1ccc(NC(=O)CCN2CCN(c3ccccn3)CC2)cc1.Cl.Cl numericvalue=-1.70
compound=COc1ccc(NC(=O)CCN2CCN(c3ccccn3)CC2)cc1.Cl.Cl numericvalue=-0.62
compound="O=c1[nH]c2ccccc2n1CCCN1CCN(C(c2ccccc2)c2ccccc2)CC1 [OXATOMIDE]" numericvalue=-1.10
compound=Cl.Cl.O=C(CCN1CCN(c2ccccn2)CC1)Nc1cccc([N+](=O)[O-])c1 numericvalue=-0.43
compound=Cl.Cl.O=C(CCN1CCN(c2ccccn2)CC1)Nc1c(Cl)cccc1Cl numericvalue=-0.40
compound="CCOC(=O)CC(C)N1CCN(c2ccccn2)CC1.Cl.Cl (stereo not drawn)" numericvalue=0.62
compound="COC(=O)CC(C)N1CCN(c2ccccn2)CC1.O=C(O)/C=C\\C(=O)O.O=C(O)/C=C\\C(=O)O (stereo not drawn)" numericvalue=0.37
compound="CC(O)c1ccc(NC(=O)CCN2CCN(c3ccccn3)CC2)cc1 (stereo not drawn)" numericvalue=-0.32
compound=COc1cccc(N2CCN(CCC(=O)Nc3ccccc3[N+](=O)[O-])CC2)n1.Cl numericvalue=-0.28
compound=Cl.Cl.O=C(CCN1CCN(c2ccccn2)CC1)Nc1cccc(C(F)(F)F)c1 numericvalue=-0.19
compound=O=C(CCN1CCN(c2ccccn2)CC1)Nc1ccc(NC(=O)Nc2ccccc2)cc1 numericvalue=-0.51
compound=COc1cccc(N2CCN(CCC(=O)Nc3ccccc3N)CC2)n1.Cl.Cl numericvalue=2.03
compound=COc1cccc(N2CCN(CCC(=O)Nc3ccc(N)cc3)CC2)n1.Cl.Cl numericvalue=-0.40
compound=NC(=O)Nc1ccc(NC(=O)CCN2CCN(c3ccccn3)CC2)cc1 numericvalue=-0.60
compound=Cl.Cl.NC(=O)CCN1CCN(c2ccccn2)CC1 numericvalue=0.39
compound=CC(=O)c1ccccc1NC(=O)CCN1CCN(c2ccccn2)CC1.Cl.Cl numericvalue=-0.05
compound=CC(C)Sc1ccc(NC(=O)CCN2CCN(c3ccccn3)CC2)cc1 numericvalue=-0.10
compound=CCOC(=O)C(=O)Nc1ccc(NC(=O)CCN2CCN(c3ccccn3)CC2)cc1 numericvalue=-0.64
compound="CC1CN(c2ccccn2)CCN1CCC(=O)Nc1ccc(N)cc1.Cl (stereo not drawn)" numericvalue=-0.23
compound=CCOc1ccc(NC(=O)CCN2CCN(c3ccccn3)CC2)cc1.Cl.Cl numericvalue=-0.85
compound=NS(=O)(=O)c1ccc(NC(=O)CCN2CCN(c3ccccn3)CC2)cc1 numericvalue=-0.72
compound=Cc1c(C)c(C(=O)NCCN2CCN(c3ccccn3)CC2)c(C)c(C)c1N numericvalue=0.92
compound=CNC(=O)Nc1ccc(NC(=O)CCN2CCN(c3ccccn3)CC2)cc1.Cl.Cl numericvalue=-0.54
compound=Cl.Cl.O=C(CCN1CCN(c2ccccn2)CC1)Nc1ccc([N+](=O)[O-])cc1 numericvalue=-0.03
compound=Cl.Cl.NC(=O)c1ccc(NC(=O)CCN2CCN(c3ccccn3)CC2)cc1 numericvalue=-0.52
compound=Cc1cc(N)cc(C)c1C(=O)NCCN1CCN(c2ccccn2)CC1.Cl numericvalue=0.72
compound=CSc1ccc(NC(=O)CCN2CCN(c3ccccn3)CC2)cc1 numericvalue=-0.77
compound=COc1cccc(N2CCN(CCC(=O)Nc3ccc([N+](=O)[O-])cc3)CC2)n1.Cl numericvalue=-0.80
compound=Cl.Cl.O=C(CCN1CCN(c2ccccn2)CC1)Nc1ccccc1[N+](=O)[O-] numericvalue=-0.24
compound=COc1cccc(NC(=O)CCN2CCN(c3ccccn3)CC2)c1.Cl.Cl numericvalue=-0.25
compound=COC(=O)CCN1CCN(c2ccccn2)CC1.Cl numericvalue=0.54
compound=Cc1ccccc1NC(=O)CCN1CCN(c2ccccn2)CC1 numericvalue=-0.33
compound=Cl.Cl.O=C(CCN1CCN(c2ccccn2)CC1)Nc1ccc(O)cc1 numericvalue=-0.31
compound=CCC(=O)Nc1ccc(NC(=O)CCN2CCN(c3ccccn3)CC2)cc1.Cl.Cl numericvalue=-0.64
compound=CC(=O)c1cccc(NC(=O)CCN2CCN(c3ccccn3)CC2)c1.Cl.Cl numericvalue=-0.70
